# Subject of test: T1, HLA class I molecule B08.01
# T1 construct: Purified MHC class I complex; also called HLA-B08:01
# Experiment notes: pMHC-I dissociation half-life, 125I-b2m
Property: Stability (T1/2 (h))
Numbers only; they are read as h.

Binder	Stability (T1/2 (h))
LLYITAFFL (also called NDUFC2 (-KCDT14)(-1))	0
YQQQQQSDL (also called MYC, E39D)	0

# input for lookup
Record request: Stability (T1/2 (h)) value, item LLALWECSL (also called MSH3(-1)) 0
